experiment: Metabolic stability in human liver microsomes assessed as intrinsic clearance incubated upto 60 mins in presence of NADPH by LC-MS analysis; type: ADME, Microsome; settings: read-out: CLH
Residues, ends and D or L forms follow the SMILES beside them. *: point of attachment. NHBn = c1ccc(CN*)cc1; ClAc = O=C(CCl)*
Each item that follows carries a reported CLint scaled.

Observe how each entry below is paired with its result.
CC(C)C[C@@H](NC(=O)CCl)C(=O)N[C@@H](Cc1c[nH]c2ccccc12)C(=O)NCc1ccccc1; < 45 mL/min/kg
O=C(CCl)NCC(=O)N[C@@H](Cc1c[nH]c2ccccc12)C(=O)NCc1ccccc1 (ClAc-Gly-Trp-NHBn); < 15 mL/min/kg
CC(C)C[C@H](NC(=O)CCl)C(=O)N[C@@H](Cc1c[nH]c2ccccc12)C(=O)NCc1ccccc1; > 45 mL/min/kg

Now, please, on to the next molecule.
# input molecule: O=C(CCl)N[C@@H](Cc1ccccc1)C(=O)N[C@@H](Cc1c[nH]c2ccccc12)C(=O)NCc1ccccc1 (ClAc-Phe-Trp-NHBn) ; wanted: its CLint scaled > 45 mL/min/kg

====

test system: SARS-CoV-2; assay: microbe, parasite or virus in culture; conditions: Severe acute respiratory syndrome coronavirus 2, 860-J1 (Delta), Vero
Description: Antiviral activity against SARS-CoV-2 860-J1 (Delta) infected in African green monkey Vero cells assessed as reduction in virus-induced cytopathic effect incubated for 6 to 7 days by microscopic analysis
Residues, ends and D or L forms follow the SMILES beside them. *: point of attachment. NHBn = c1ccc(CN*)cc1; ClAc = O=C(CCl)*
Rule: measured EC50 below 4 µM gets 1 (yes); anything equal to or greater than 4 µM gets 0 (no).

Solved entries:
COC(=O)[C@H](CC(C)C)NC(=O)[C@H](Cc1c[nH]c2ccccc12)NC(=O)CCl (ClAc-Trp-Leu-OMe); 0 (no)
COC(=O)[C@H](CCC(N)=O)NC(=O)[C@H](Cc1c[nH]c2ccccc12)NC(=O)[C@H](CC(C)C)NC(=O)CCl (ClAc-Leu-Trp-Gln-OMe); 0 (no)
O=C(CS)N[C@@H](Cc1ccccc1)C(=O)N[C@@H](Cc1c[nH]c2ccccc12)C(=O)NCc1ccccc1; 0 (no)
CC(C)C[C@H](NC(=O)[C@H](Cc1c[nH]c2ccccc12)NC(=O)CCl)C(=O)NCc1ccccc1 (ClAc-Trp-Leu-NHBn); 1 (yes)

# check: EC50 < 4 µM for CC(C)C[C@@H](C(=O)NCC12CC3CC(CC(C3)C1)C2)N(Cc1ccccc1)C(=O)CCl 0 (no)

Now consider O=C(CCl)N[C@@H](Cc1ccccc1)C(=O)N[C@@H](Cc1c[nH]c2ccccc12)C(=O)NCc1ccccc1 (ClAc-Phe-Trp-NHBn) . 1 (yes)

Now consider O=C(CCl)NCC(=O)N[C@@H](Cc1c[nH]c2ccccc12)C(=O)NCc1ccccc1 (ClAc-Gly-Trp-NHBn) . 1 (yes)

Now consider CC(C)C[C@H](NC(=O)CCl)C(=O)N[C@@H](Cc1ccccc1)C(=O)N[C@@H](Cc1c[nH]c2ccccc12)C(=O)NCc1ccccc1 (ClAc-Leu-Phe-Trp-NHBn) . 0 (no)

Now consider CCC(CC)COC(=O)[C@H](C)N[P@](=O)(OC[C@H]1O[C@@](C#N)(c2ccc3c(N)ncnn23)[C@H](O)[C@@H]1O)Oc1ccccc1 . 1 (yes)

====

system: Human coronavirus OC43; format: functional, organism-based
The source made the active and inactive calls. Residues, ends and D or L forms follow the SMILES beside them. *: point of attachment. NHBn = c1ccc(CN*)cc1; ClAc = O=C(CCl)*
Classes to choose from: active, inactive

Solved entries:
O=C(CCl)N[C@@H](Cc1ccccc1)C(=O)N[C@@H](Cc1c[nH]c2ccccc12)C(=O)NCc1ccccc1 (ClAc-Phe-Trp-NHBn); active
CC(C)C[C@@H](NC(=O)CCl)C(=O)N[C@@H](Cc1c[nH]c2ccccc12)C(=O)NCc1ccccc1; active
COC(=O)[C@H](CC(C)C)NC(=O)[C@H](Cc1c[nH]c2ccccc12)NC(=O)CCl (ClAc-Trp-Leu-OMe); active
CC(C)C[C@H](NC(=O)[C@H](Cc1c[nH]c2ccccc12)NC(=O)CCl)C(=O)NCc1ccccc1 (ClAc-Trp-Leu-NHBn); active
CC(C)C[C@@H](C(=O)NCC12CC3CC(CC(C3)C1)C2)N(Cc1ccccc1)C(=O)CCl; active

Test call for this molecule, please: CC(C)C[C@H](NC(=O)CCl)C(=O)N[C@H](Cc1c[nH]c2ccccc12)C(=O)NCc1ccccc1 active

Now consider CCC(CC)COC(=O)[C@H](C)N[P@](=O)(OC[C@H]1O[C@@](C#N)(c2ccc3c(N)ncnn23)[C@H](O)[C@@H]1O)Oc1ccccc1 . active

====

Each item that follows carries a reported IC50.
molecular target: Replicase polyprotein 1ab (Severe acute respiratory syndrome coronavirus 2, UniProt P0DTD1); assay: Inhibition of recombinant SARS-CoV-2 main protease using DABCYL-KTSAVLQSGFRKME-EDANS as fluorescent substrate preincubated for 30 mins followed by substrate addition by FRET assay
Residues, ends and D or L forms follow the SMILES beside them. *: point of attachment. NHBn = c1ccc(CN*)cc1; ClAc = O=C(CCl)*
Write down the numeric answer in µM and omit the unit.

CC(C)C[C@H](NC(=O)[C@H](Cc1c[nH]c2ccccc12)NC(=O)CCl)C(=O)NCc1ccccc1 (ClAc-Trp-Leu-NHBn); 8.32

Now, please, on to the next molecule.
# input molecule: CC(C)C[C@H](NC(=O)CCl)C(=O)N[C@@H](Cc1c[nH]c2ccccc12)C(=O)NCc1ccccc1 ; wanted: its IC50 2.81

====

Each item that follows carries a reported pEC50.
system: SARS-CoV-2; experiment: microbe, parasite or virus in culture; conditions: Severe acute respiratory syndrome coronavirus 2, Wuhan/WIV04/2020, Vero
Description: Antiviral activity against SARS-CoV-2 Wuhan/WIV04/2020 infected in African green monkey Vero cells assessed as reduction in virus-induced cytopathic effect incubated for 6 to 7 days by microscopic analysis
The scale used: pEC50 is minus the common logarithm of the concentration in molar units.

# input compound: C=CC[C@H](NC(=O)CCl)C(=O)N[C@@H](Cc1c[nH]c2ccccc12)C(=O)NCCN1CCOCC1 ; wanted: its pEC50 4.99

====

target: Replicase polyprotein 1ab (Severe acute respiratory syndrome coronavirus 2, UniProt P0DTD1); assay: Inhibition of recombinant SARS-CoV-2 main protease using DABCYL-KTSAVLQSGFRKME-EDANS as fluorescent substrate preincubated for 30 mins followed by substrate addition by FRET assay
Non-standard residues stand in square brackets, D forms with d. Residues, ends and D or L forms follow the SMILES beside them. *: point of attachment. AllylGly = C=CC[C@H](N)C(=O)O; Acryloyl = C=CC(=O)*; NHBn = c1ccc(CN*)cc1; ClAc = O=C(CCl)*
Each item that follows carries a reported IC50.

Observe how each entry below is paired with its result.
CC(C)C[C@H](NC(=O)CCl)C(=O)N[C@@H](Cc1ccccc1)C(=O)N[C@@H](Cc1c[nH]c2ccccc12)C(=O)NCc1ccccc1 (ClAc-Leu-Phe-Trp-NHBn); > 30 µM
C=CC[C@H](NC(=O)CCl)C(=O)N[C@@H](CC=C)C(=O)N[C@H](CNCc1ccccc1)Cc1c[nH]c2ccccc12; > 30 µM
COC(=O)[C@H](CC(C)C)NC(=O)[C@H](Cc1c[nH]c2ccccc12)NC(=O)CCl (ClAc-Trp-Leu-OMe); > 30 µM
C=CC[C@H](NC(=O)CCl)C(=O)N[C@@H](Cc1c[nH]c2ccccc12)C(=O)NCc1ccccc1 (ClAc-[AllylGly]-Trp-NHBn); 1.72 µM
CC(C)C[C@@H](C(=O)NCC12CC3CC(CC(C3)C1)C2)N(Cc1ccccc1)C(=O)CCl; > 30 µM

# input compound: CC(C)C[C@@H](NC(=O)CCl)C(=O)N[C@@H](Cc1c[nH]c2ccccc12)C(=O)NCc1ccccc1 ; wanted: its IC50 > 30 µM

Now consider C=CC(=O)N[C@@H](CC(C)C)C(=O)N[C@@H](Cc1c[nH]c2ccccc12)C(=O)NCc1ccccc1 . > 30 µM

Now consider O=C(CS)N[C@@H](Cc1ccccc1)C(=O)N[C@@H](Cc1c[nH]c2ccccc12)C(=O)NCc1ccccc1 . > 30 µM

Now consider C=CC(=O)N[C@@H](Cc1ccccc1)C(=O)N[C@@H](Cc1c[nH]c2ccccc12)C(=O)NCc1ccccc1 (Acryloyl-Phe-Trp-NHBn) . > 30 µM

Now consider COC(=O)[C@H](CCC(N)=O)NC(=O)[C@H](Cc1c[nH]c2ccccc12)NC(=O)[C@H](CC(C)C)NC(=O)CCl (ClAc-Leu-Trp-Gln-OMe) . > 30 µM

Now consider O=C(CCl)N[C@@H](Cc1ccc(O)cc1)C(=O)N[C@@H](Cc1c[nH]c2ccccc12)C(=O)NCc1ccccc1 (ClAc-Tyr-Trp-NHBn) . 8.35 µM

Now consider C=CC[C@H](NC(=O)CCl)C(=O)N[C@@H](Cc1c[nH]c2ccccc12)C(=O)NCCN1CCOCC1 . > 30 µM

Now consider O=C(CCl)N[C@@H](Cc1ccccc1)C(=O)N[C@@H](Cc1c[nH]c2ccccc12)C(=O)NCc1ccccc1 (ClAc-Phe-Trp-NHBn) . 0.73 µM

Now consider CC(C)C[C@H](NC(=O)CCl)C(=O)N[C@H](Cc1c[nH]c2ccccc12)C(=O)NCc1ccccc1 . 14.6 µM
